Target: T1, Par3 PDZ3 (rat, UniProt Q9Z340 582-685)
T1 construct: Par3, rat, third PDZ domain; Cloned into pGEX-6P-1 or a modified pET32a vector; also called rat Par3 PDZ3; source: E. coli BL21 (DE3) or Rosetta, purified (Ni2+-NTA, SEC)
T1 sequence (Q9Z340 582-685): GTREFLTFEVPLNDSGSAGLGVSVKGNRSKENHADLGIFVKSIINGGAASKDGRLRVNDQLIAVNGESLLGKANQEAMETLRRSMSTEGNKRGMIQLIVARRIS
Assay: fluorescence polarisation; FITC-labeled peptide (~1 μM) titrated with Par3 PDZ domains, 25 °C, buffer A (50 mM Tris pH 8.0, 100 mM NaCl, 1 mM EDTA, 1 mM DTT)
Conditions: both partners purified
pKd: −log10 of the molar value. Ends that are not written are not given here.
MEASURED_PROPERTY: pKd

The binder listed as LEEDGTIITL (also: FITC label, position not given here, source: synthetic peptide (Phtdpeptides)) [FITC-labeled Par6β PBM peptide] has a reported pKd of ~6.00
